Source listed as patent US8859574B2.

Molecular target: IGF-1R Ba/F3 (Homo sapiens)
Construct: fused on or other part: TEL- (or BCR-) IGF-1R in Ba/F3: the kinase part holds the site
Sequence (P08069 999-1274 limits assumed): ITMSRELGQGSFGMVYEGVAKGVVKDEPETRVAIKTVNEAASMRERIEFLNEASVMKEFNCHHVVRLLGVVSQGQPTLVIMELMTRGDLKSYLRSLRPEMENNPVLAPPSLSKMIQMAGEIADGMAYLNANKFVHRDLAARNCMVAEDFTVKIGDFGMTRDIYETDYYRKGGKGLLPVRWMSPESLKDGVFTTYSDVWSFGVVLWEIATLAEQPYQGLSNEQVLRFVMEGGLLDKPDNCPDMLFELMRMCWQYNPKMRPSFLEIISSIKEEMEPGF
Assay: Ba/F3 Cell Viability Inhibition Assay (IGF-1R Ba/F3)
Assay type: cell-based, murine
Details: Tel-TK transformed Ba/F3 cells, 48 hours, Britelite luminescence
Procedure: The IC50 of a drug may be determined constructing a dose-response curve and examining the effect of different concentrations of antagonist on reversing agonist activity. IC50 values may be calculated for a given antagonist by determining the concentration needed to inhibit half of the maximum biological response of the agonist. […] The potency of test compounds against various Tel-TK transformed Ba/F3 lines is determined as follows. […]
pIC50: −log10 of the molar value.
Here the recorded pIC50 is given for each entry.
Assay endpoint: pIC50

{"columns": ["Molecule", "Result value"],
 "data": [
  ["Cc1cc(Nc2nc(Nc3cc(C)c(C4CNC4)cc3C)ncc2Cl)n[nH]1", 6.39],
  ["Cc1cc(Nc2nc(Nc3cc(C)c(C4CCN(C(=O)CCN5CCOCC5)CC4)cc3C)ncc2Cl)n[nH]1", 7.77],
  ["Cc1cc(Nc2nc(Nc3cc(C(F)(F)F)c(C4CCN(CC(N)=O)CC4)cc3F)ncc2Cl)n[nH]1", 7.72],
  ["Cc1cc(Nc2nc(Nc3cc(C)c(C4CCN(S(=O)(=O)CCCN5C[C@@H](O)[C@H](O)C5)CC4)cc3C)ncc2Cl)n[nH]1", 6.43],
  ["Cc1cc(Nc2nc(Nc3cc(C(F)(F)F)c(C4CCN(CC(N)=O)CC4)cc3C)ncc2Cl)n[nH]1", 7.66],
  ["Cc1cc(Nc2nc(Nc3cc(C)c(C4CCN(C(=O)CN5CCCCC5)CC4)cc3C)ncc2Cl)n[nH]1", 8.15],
  ["CNC(=O)CN1CCC(c2cc(C)c(Nc3ncc(Cl)c(Nc4cc(C)[nH]n4)n3)cc2Cl)CC1", 7.74],
  ["Cc1cc(Nc2nc(Nc3cc(C)c(C4CCNCC4)cc3C)ncc2C)n[nH]1", 5.49],
  ["CNC(=O)CN1CCC(c2cc(C)c(Nc3ncc(Cl)c(Nc4cc(C(F)(F)F)[nH]n4)n3)cc2C)CC1", 7.43],
  ["Cc1cc(Nc2nc(Nc3cc(C)c(C4CCN(C(=O)c5ocnc5C)CC4)cc3F)ncc2Cl)n[nH]1", 7.46],
  ["Cc1cc(Nc2nc(Nc3cc(C)c(C4CCN(C(=O)c5nc(C(C)C)no5)CC4)cc3F)ncc2Cl)n[nH]1", 7.04],
  ["Cc1cc(Nc2nc(Nc3cc(C)c(C4CCN(S(=O)(=O)CCCN5CCOCC5)CC4)cc3C)ncc2Cl)n[nH]1", 7.89],
  ["Cc1cc(Nc2nc(Nc3cc(C)c(C4CC[N+]([O-])(C5CCOCC5)CC4)cc3F)ncc2Cl)n[nH]1 (stereo not shown)", 7.19],
  ["Cc1cc(C2CCN(C(=O)CN(C)C)CC2)c(C)cc1Nc1ncc(Cl)c(Nc2cc(C3CC3)[nH]n2)n1", 7.92],
  ["Cc1cc(Nc2nc(Nc3cc(C)c(C4CCN(C(=O)Cn5cccc5)CC4)cc3F)ncc2Cl)n[nH]1", 7.60],
  ["Cc1cc(Nc2nc(Nc3cc(C)c(C4CCN(C(=O)[C@@H]5CCCN5C)CC4)cc3C)ncc2Cl)n[nH]1", 7.77],
  ["Cc1cc(Nc2nc(Nc3cc(C)c(C4CCN(C5CCNCC5)CC4)cc3F)ncc2Cl)n[nH]1", 6.36],
  ["Cc1cc(Nc2nc(Nc3cc(C)c(C4CCN(C(=O)[C@H]5CCCN5C)CC4)cc3C)ncc2Cl)n[nH]1", 7.89],
  ["Cc1cc(Nc2nc(Nc3cc(C)c(C4CCN(CCO)CC4)cc3C)ncc2C(F)(F)F)n[nH]1", 7.42],
  ["Cc1cc(Nc2nc(Nc3cc(C)c(C4CCN(Cc5cccnc5)CC4)cc3F)ncc2Cl)n[nH]1", 7.10],
  ["CCC(C(N)=O)N1CCC(c2cc(C)c(Nc3ncc(Cl)c(Nc4cc(C)[nH]n4)n3)cc2C)CC1 (stereo not shown)", 8.05],
  ["Cc1cc(Nc2nc(Nc3cc(C)c(C4CCN(CCC#N)CC4)cc3F)ncc2Cl)n[nH]1", 7.44]
]}
